# test target: MDM2 (RING protein) (Homo sapiens, UniProt Q00987)
# Construct: MDM2 RING protein
# Sequence (Q00987 whole entry): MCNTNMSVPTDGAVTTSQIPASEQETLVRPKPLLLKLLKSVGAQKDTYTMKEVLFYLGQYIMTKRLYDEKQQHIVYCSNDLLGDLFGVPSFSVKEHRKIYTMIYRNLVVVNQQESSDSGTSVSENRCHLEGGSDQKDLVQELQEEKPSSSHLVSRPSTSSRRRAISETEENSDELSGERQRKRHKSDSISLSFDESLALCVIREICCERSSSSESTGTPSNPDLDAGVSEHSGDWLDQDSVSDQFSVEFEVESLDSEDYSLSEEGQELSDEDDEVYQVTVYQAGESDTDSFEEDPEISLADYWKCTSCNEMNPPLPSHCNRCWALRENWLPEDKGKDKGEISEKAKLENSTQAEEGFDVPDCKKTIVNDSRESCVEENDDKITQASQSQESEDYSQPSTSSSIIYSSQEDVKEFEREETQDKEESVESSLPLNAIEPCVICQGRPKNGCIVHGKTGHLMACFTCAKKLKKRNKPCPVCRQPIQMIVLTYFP
# experiment notes: isothermal titration calorimetry (auto-iTC200, one-site fit)
parameter: pKd
Convention used: pKd is expressed as -log10 of the molar concentration.

Input: Which value of pKd has been reported for Cc1cc2c(C(C)C)c(O)c(O)c(C=O)c2c(O)c1-c1c(C)cc2c(C(C)C)c(O)c(O)c(C=O)c2c1O in the records?
Output: 5.28
